# tgt: T1, cynomolgus (Macaca fascicularis) ST2L extracellular domain with C-terminal His6 tag (Macaca fascicularis (cynomolgus), UniProt Q01638 19-321 (human entry))
# T1 construct: also called cyno ST2L-ECD; cynoST2L-ECD
# T1 chain: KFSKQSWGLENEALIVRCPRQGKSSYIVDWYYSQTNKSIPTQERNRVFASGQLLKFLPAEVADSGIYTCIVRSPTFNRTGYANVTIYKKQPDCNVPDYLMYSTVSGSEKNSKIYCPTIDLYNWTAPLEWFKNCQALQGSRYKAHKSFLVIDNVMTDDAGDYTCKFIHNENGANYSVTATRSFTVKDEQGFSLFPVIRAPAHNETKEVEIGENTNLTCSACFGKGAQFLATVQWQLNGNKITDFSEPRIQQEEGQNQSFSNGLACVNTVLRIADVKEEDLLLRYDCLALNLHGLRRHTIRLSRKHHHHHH
# experiment: SPR, mAb captured, ST2L-ECD in solution
Kindly apply the following: y if koff is less than 0.0006 s⁻¹, n in every other case.

Worked examples follow.
>>> classlabel("STLM216 (antibody, V domains shown, frameworks VH3-23 / Vk-L6) VH: EVQLLESGGGLVQPGGSLRLSCAASGFTFSSYDMFWVRQAPGKGLEWVSDIKGEGGATNYADSVKGRFTISRDNSKNTLYLQMNSLRAEDTAVYYCARDPWSTEGSFFVLDYWGQGTLVTVSS VL: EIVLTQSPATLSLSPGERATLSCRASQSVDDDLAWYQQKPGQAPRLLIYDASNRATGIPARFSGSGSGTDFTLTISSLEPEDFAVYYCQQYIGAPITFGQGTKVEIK")
"y"
>>> classlabel("STLM103 (antibody, V domains shown, frameworks VH3-23 / Vk-L6) VH: EVQLLESGGGLVQPGGSLRLSCAASGFTFSFYDMFWVRQAPGKGLEWVSSIRGEGGRTDYADSVKGRFTISRDNSKNTLYLQMNSLRAEDTAVYYCARDPWSTEGSFFVLDYWGQGTLVTVSS VL: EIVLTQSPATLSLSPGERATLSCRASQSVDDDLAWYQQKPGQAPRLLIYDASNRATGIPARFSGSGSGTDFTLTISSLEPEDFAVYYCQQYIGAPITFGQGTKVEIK")
"y"
>>> classlabel("STLM123 (antibody, V domains shown, frameworks VH3-23 / Vk-L6) VH: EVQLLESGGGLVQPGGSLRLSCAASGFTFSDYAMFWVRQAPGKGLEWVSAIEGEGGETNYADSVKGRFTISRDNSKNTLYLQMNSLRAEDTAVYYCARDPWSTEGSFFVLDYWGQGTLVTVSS VL: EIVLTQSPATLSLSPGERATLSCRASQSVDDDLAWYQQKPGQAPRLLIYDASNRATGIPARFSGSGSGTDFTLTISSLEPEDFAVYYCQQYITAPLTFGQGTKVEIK")
"y"
>>> classlabel("STLM226 (antibody, V domains shown, VH STLH201 + VL STLL280) VH: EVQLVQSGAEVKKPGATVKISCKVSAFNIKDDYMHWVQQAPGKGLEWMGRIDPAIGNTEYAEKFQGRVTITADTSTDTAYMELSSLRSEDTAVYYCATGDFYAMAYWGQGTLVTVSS VL: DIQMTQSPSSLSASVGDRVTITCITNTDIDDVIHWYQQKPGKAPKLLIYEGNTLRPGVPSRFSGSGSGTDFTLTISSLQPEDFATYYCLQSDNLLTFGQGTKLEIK")
"n"

Request: Lab note: confirm whether the reported koff for this binder is below 0.0006 s⁻¹, equality not counting. binder: STLM208 (antibody, V domains shown, frameworks VH3-23 / Vk-L6) VH: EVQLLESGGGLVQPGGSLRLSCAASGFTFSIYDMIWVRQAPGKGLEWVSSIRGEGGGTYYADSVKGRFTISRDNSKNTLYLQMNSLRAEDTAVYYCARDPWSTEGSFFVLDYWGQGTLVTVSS VL: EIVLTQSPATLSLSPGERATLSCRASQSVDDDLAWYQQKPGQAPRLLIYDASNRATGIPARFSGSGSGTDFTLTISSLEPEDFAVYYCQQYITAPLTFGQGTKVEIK
Result: y
